Where do the numbers come from? From patent US20210230266A1.

- Target system: T1, Human IL-11 (human, UniProt P20809 22-199)
- T1 construct: Recombinant human IL-11 (GenScript Cat. No. Z03108-1) or IL-11 secreted by human cells; the mature form is said to have 178 residues; also called recombinant human IL-11; endogenously produced IL-11
- T1 sequence: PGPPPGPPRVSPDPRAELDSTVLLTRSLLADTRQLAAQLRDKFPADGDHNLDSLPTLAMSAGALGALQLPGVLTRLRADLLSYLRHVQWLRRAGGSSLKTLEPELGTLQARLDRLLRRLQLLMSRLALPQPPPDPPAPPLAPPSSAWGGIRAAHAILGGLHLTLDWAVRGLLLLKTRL
- Method description: ELISA
Collected hIL11 - average signal values appear next to each entry.
Number, no unit, nothing else.

Solved entries:
>  <Binder>
YU112-H01 (antibody) QVQLVESGGGVVQPGRSLRLSCAASGFTFGSYGMHWVRQAPGKGLEWVAVISYDGSNKYYADSVKGRFTISRDNSKNTLYLQMNSLRAEDTAVYYCAKGSYYFDYWGQGTLVTVSSGSASAPKLEEGEFSEARVETTLTQSPGTLSLSPGERATLSCRASQSVSSSYLAWYQQKPGQAPRLLIYGASSRATGIPDRFSGSGSGTDFTLTISSLQPDDFATYYCQQSYSTPTWTFGQGTKVEIK

>  <hIL11 - average signal>
1.23

$$$$
>  <Binder>
YU100-D07 (antibody) QVQLVESGGGVVQPGRSLRLSCAASGFTFSSYAMHWVRQAPGKGLEWVAVISYDGSNKYYADSVKGRLTISRDNSKNTLYLQMNSLRAEDTAVYYCARIMGYDYGDYDVVDYWGQGTLVTVSSGSASAPKLEEGEFSEARVQSALTQPRSVSGSPGQSVTISCTGTSGDVGTYDYVSWYQQHPGKAPKLMIYDVSKRPSGVPDRFSGSKSGNTASLTISGLQAEDEADYYCNSYAGSYTWVFGGGTKLTVLGQPKTAPSVTLFPPSS

>  <hIL11 - average signal>
0.246

$$$$

As a next step, examine the binder that follows.
Return reported hIL11 - average signal; argument: YU100-H11 (antibody) QVQLVQSGGGVVQPGRSLRLSCAASGFTFSSYGMHWVRQAPGKGLEWVAVISYDGSNKYYADSVKGRFTISRDNSKNTLYLQMNSLRAEDTAVYYCAKIGATDPLDYWGQGTLVTVSSGSASAPKLEEGEFSEARVQSALTQPASVSGSPGQSITISCTGTSSDVGGYNYVSWYQQHPGKAPKLMIYDVSNRPSGVSNRFSGSKSGNTASLTISGLQAEDEADYYCCSYAGSYTWVFGGGTKLTVL
0.724
